B1: LINE1-full (parent)
chain: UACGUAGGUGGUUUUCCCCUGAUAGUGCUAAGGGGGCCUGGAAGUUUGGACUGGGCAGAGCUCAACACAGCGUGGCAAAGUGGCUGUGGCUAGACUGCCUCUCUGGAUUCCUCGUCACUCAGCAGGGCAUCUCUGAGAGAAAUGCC

Variants of: B1
Assay: self-cleavage, relative activity (ratio to wild type); higher = more cleavage; in vitro, sequencing; the parent is a self-cleaving ribozyme
Measurement kind: self-cleavage
Please reply with the value in numeric form only.

Examples with their reported self-cleavage follow.
> print(dat)
   mutant.label  measurement.kind  value.observed
1    U14A A136C     self-cleavage            1.78
2     C19U G40A     self-cleavage               1
3     U20C U45C     self-cleavage            1.19
4    A69G A121C     self-cleavage            0.51
5    U62A U130C     self-cleavage            0.05

Name the recorded self-cleavage for A22G A124U .
0.8
